Data origin: the supplement of paper PMC11246515

Assay: total protein half-life in vivo (active degradation + dilution); higher = more stable protein
Details: wild type E. coli NCM3722; growth: P-lim chemostat; doubling time 12 h
In this section, each of the sequences is paired with its reported total protein half-life in vivo.

| sequenceString | total protein half-life in vivo |
| --- | --- |
| MQENQQITKKEQYNLNKLQKRLRRNVGEAIADFNMIEEGDRIMVCLSGGKDSYTMLEILRNLQQSAPINFSLVAVNLDQKQPGFPEHVLPEYLEKLGVEYKIVEENTYGIVKEKIPEGKTTCSLCSRLRRGILYRTATELGATKIALGHHRDDILQTLFLNMFYGGKMKGMPPKLMSDDGKHIVIRPLAYCREKDIQRFADAKAFPIIPCNLCGSQPNLQRQVIADMLRDWDKRYPGRIETMFSAMQNVVPSHLCDTNLFDFKGITHGSEVVNGGDLAFDREEIPLQPACWQPEEDENQLDELRLNVVEVK | 4.26 h |
| MKVMRTTVATVVAATLSMSAFSVFAEASLTGAGATFPAPVYAKWADTYQKETGNKVNYQGIGSSGGVKQIIANTVDFGASDAPLSDEKLAQEGLFQFPTVIGGVVLAVNIPGLKSGELVLDGKTLGDIYLGKIKKWDDEAIAKLNPGLKLPSQNIAVVRRADGSGTSFVFTSYLAKVNEEWKNNVGTGSTVKWPIGLGGKGNDGIAAFVQRLPGAIGYVEYAYAKQNNLAYTKLISADGKPVSPTEENFANAAKGADWSKTFAQDLTNQKGEDAWPITSTTFILIHKDQKKPEQGTEVLKFFDWAYKTGAKQANDLDYASLPDSVVEQVRAAWKTNIKDSSGKPLY [P0AG82] | 11.5 h |

###

Assay: total protein half-life in vivo (active degradation + dilution); higher = more stable protein
Conditions: wild type E. coli NCM3722; growth: N-lim chemostat; doubling time 12 h

| sequenceString | total protein half-life in vivo [h] |
| --- | --- |
| MTAPSQVLKIRRPDDWHLHLRDGDMLKTVVPYTSEIYGRAIVMPNLAPPVTTVEAAVAYRQRILDAVPAGHDFTPLMTCYLTDSLDPNELERGFNEGVFTAAKLYPANATTNSSHGVTSIDAIMPVLERMEKIGMPLLVHGEVTHADIDIFDREARFIESVMEPLRQRLTALKVVFEHITTKDAADYVRDGNERLAATITPQHLMFNRNHMLVGGVRPHLYCLPILKRNIHQQALRELVASGFNRVFLGTDSAPHARHRKESSCGCAGCFNAPTALGSYATVFEEMNALQHFEAFCSVNGPQFYGLPVNDTFIELVREEQQVAESIALTDDTLVPFLAGETVRWSVKQ | 9.47 |
| MKTMLAAYLPGNSTVDLREVAVPTPGINQVLIKMKSSGICGSDVHYIYHQHRATAAAPDKPLYQGFINGHEPCGQIVAMGQGCRHFKEGDRVLVYHISGCGFCPNCRRGFPISCTGEGKAAYGWQRDGGHAEYLLAEEKDLILLPDALSYEDGAFISCGVGTAYEGILRGEVSGSDNVLVVGLGPVGMMAMMLAKGRGAKRIIGVDMLPERLAMAKQLGVMDHGYLATTEGLPQIIAELTHGGADVALDCSGNAAGRLLALQSTADWGRVVYIGETGKVEFEVSADLMHHQRRIIGSWVTSLFHMEKCAHDLTDWKLWPRNAITHRFSLEQAGDAYALMASGKCGKVVINFPD | 3.6 |
